- Read-out: Cytochrome P450 (CYP1A2), CYP1A2 (gene 1544)
- protocol_text: LTEA_HepaRG_CYP1A2: Life Technologies and Expression Analysis (LTEA) Assay for Cytochrome P450 (CYP1A2) using HepaRG (AID 2283479)
- test_parameters: mRNA level, 48 h; actives raise or lower the signal
Activity calls are given as the source filed them. How the source made its calls: active means hit-call score of the fitted dose curve at least 0.9, where 1 is the maximum; inactive means score below 0.9.
Parameter call: string, one of yes = active, no = inactive

Look over these answered cases.
molecule_smiles=Nc1ccc(-c2ccc(N)cc2)cc1 cat=no
molecule_smiles=CCNc1nc(NC(C)C)nc(SC)n1 cat=no
molecule_smiles=O=C(NC(=O)c1c(F)cccc1F)Nc1cc(Cl)c(OC(F)(F)C(F)F)c(Cl)c1 cat=yes

(Q) GET /call?item= O=C(N[C@H]1CN2CCC1CC2)c1cc2ccoc2cn1 returns the recorded outcome of this test.
(A) yes

(Q) # fetch the recorded call for CC(C)(O)C(=O)Nc1ccc([N+](=O)[O-])c(C(F)(F)F)c1 here
(A) yes
